Entry source: PubChem BioAssay (NCI)

Test system: LOX IMVI melanoma
Experiment: NCI tumour cell line growth inhibition, 48 h
The reader will find reported TGI values listed item by item below.
measurementType: TGI

[[record]]
compound = "C[C@@H]1C[C@@H]2C(=O)N(c3ccccc3)C(=O)[C@@H]2c2[nH]c3ccc(Br)cc3c21"
observedmeasurement = "> 100 µM"

[[record]]
compound = "COc1ccc(C(=O)c2cc(C)c(OC)c(C)c2)c(OC)c1OC(=O)C(Cl)Cl"
observedmeasurement = "> 100 µM"

[[record]]
compound = "O=C(O)c1ccc2[nH]c(=O)oc2c1"
observedmeasurement = "> 100 µM"

[[record]]
compound = "COc1ccccc1C(=O)Nc1ccc(Cl)c(C(=O)OC(C)C)c1"
observedmeasurement = "> 62.3 µM"

[[record]]
compound = "Cn1c(=O)c2[nH]c(CCS)nc2n(C)c1=O"
observedmeasurement = "> 100 µM"

[[record]]
compound = "CCOC(=O)/C=C(/C(=O)OCC)n1cc(C)c(=O)[nH]c1=O"
observedmeasurement = "5.94 µM"

[[record]]
compound = "Oc1ccc(Cl)cc1C1=Nn2c(COc3ccc4c(c3)CCCC4)nnc2SC1"
observedmeasurement = "29.3 µM"

[[record]]
compound = "CCCCc1n(Cc2ccc3ccccc3n2)cc[n+]1Cc1ccc2ccccc2c1"
observedmeasurement = "1.95 µM"

[[record]]
compound = "C#CCn1c2c(c3ccccc3c1=O)C(=O)c1ccccc1-2"
observedmeasurement = "> 100 µM"

[[record]]
compound = "NC(CCSCCF)C(=O)O (stereo unspecified)"
observedmeasurement = "> 100 µM"

[[record]]
compound = "O=c1[nH]nc(Cc2ccc(Cl)cc2)n1CCO"
observedmeasurement = "> 100 µM"


---

Tested on: SK-MEL-5 melanoma
Assay: NCI tumour cell line growth inhibition, 48 h
Where a SMILES comes first, the peptide text is derived from it. [ ]: non-standard residue; d: D form. The star is where a group is joined. Hyp = O=C(O)[CH]1C[CH](O)CN1; Cbz = O=C(OCc1ccccc1)*
The reader will find reported TGI values listed item by item below.
measurementType: TGI

[[record]]
molecule = "CC(C)CCCC(C)[C@H]1CCC2C3CC=C4C[C@@H](OC(=O)CC(CC(=O)[O-])C(=O)[O-])CC[C@]4(C)C3CC[C@@]21C.N.N.[Pt+4] (stereo partly drawn)"
observedmeasurement = "> 100 µM"

[[record]]
molecule = "O=c1oc2ccccc2c(O)c1Cc1ccccc1Cc1c(O)c2ccccc2oc1=O"
observedmeasurement = "> 100 µM"

[[record]]
molecule = "COC(=O)C1OC(SCCN)C(O)C(O)C1O (stereo not drawn)"
observedmeasurement = "> 100 µM"

[[record]]
molecule = "NC(=O)CNC(=O)C1CC(O)CN1C(=O)C1CCCN1C(=O)OCc1ccccc1 (stereo not drawn) (Cbz-Pro-[Hyp]-Gly-NH2; configuration not given here)"
observedmeasurement = "> 100 µM"

[[record]]
molecule = "Nc1n[nH]c2cc(F)c([C@@H]3Nc4c(F)cc5[nH]ncc5c4[C@H]4C5CCC(C5)[C@@H]34)cc12 (stereo partly drawn)"
observedmeasurement = "0.538 µM"

[[record]]
molecule = "O=S(C(c1ccccc1)=P(c1ccccc1)(c1ccccc1)c1ccccc1)c1ccc(Cl)cc1 (stereo not drawn)"
observedmeasurement = "27 µM"

[[record]]
molecule = "N#CCc1ccccc1/C(C#N)=C1/OC(=N)C(c2ccccc2CC#N)C1=O (stereo not drawn)"
observedmeasurement = "> 100 µM"

[[record]]
molecule = "COc1ccc2c3c1OC1C4(CCC5C(C2)N(CC2CC2)CCC351)OCCO4 (stereo not drawn)"
observedmeasurement = "> 100 µM"


---

Test system: HOP-92 NSCLC
Test: NCI tumour cell line growth inhibition, 48 h
The reader will find reported TGI values listed item by item below.
measurementType: TGI (µM)

[[record]]
mol = "CN1CCN(c2ccc3nc(-c4ccc5nc(CCCc6ccc(N(CCCl)CCCl)cc6)[nH]c5c4)[nH]c3c2)CC1"
resultqualifier = ">"
observedmeasurement = 100

[[record]]
mol = "O=C1/C(=C/c2ccc([N+](=O)[O-])cc2)Sc2scc(-c3cccc([N+](=O)[O-])c3)[n+]21"
resultqualifier = "="
observedmeasurement = 13.8

[[record]]
mol = "Nc1nc(N)c2cc(S(=O)(=O)c3ccccc3)ccc2n1"
resultqualifier = "="
observedmeasurement = 72.8

[[record]]
mol = "CN(C)c1ccc(C2=C([O-])c3cc(-[n+]4ccccc4)ccc3C2=O)cc1"
resultqualifier = ">"
observedmeasurement = 100

[[record]]
mol = "CCOc1cc(CCNC)c2c(ccc3ccc(OC)c(O)c32)c1OC"
resultqualifier = "="
observedmeasurement = 25.2


---

Test system: RPMI-8226 leukemia
Experiment: NCI tumour cell line growth inhibition, 48 h
measurementType: TGI (µM)

[[record]]
molecule = "CC12OC(C(=O)C13CCC3)C1C(=O)c3c(O)ccc(O)c3C(=O)C12 (stereo unspecified)"
measurementtype = "TGI"
resultqualifier = "="
observedmeasurement = 3.11

[[record]]
molecule = "CCC1=C(CC2NCCc3cc(OC)c(OC)cc32)CC2c3ccccc3CCN2C1 (stereo unspecified)"
measurementtype = "TGI"
resultqualifier = "="
observedmeasurement = 30.4

[[record]]
molecule = "COc1cc(NC(=O)c2cc3ccccc3cc2O)c(OC)cc1Cl"
measurementtype = "TGI"
resultqualifier = "="
observedmeasurement = 1.18

[[record]]
molecule = "CCCC(=O)Nc1cc(/C=C/C(=O)N2CC(CCl)c3c2cc(OC(C)=O)c2[nH]cc(C)c32)n(C)c1 (stereo unspecified)"
measurementtype = "TGI"
resultqualifier = "="
observedmeasurement = 0.00762

[[record]]
molecule = "CC(=O)OCCC/C(=C/c1cc2ccccc2c2ccccc12)[N+](=O)[O-]"
measurementtype = "TGI"
resultqualifier = "="
observedmeasurement = 5.74

[[record]]
molecule = "Cc1cc(=O)[nH]c(Sc2ccc([N+](=O)[O-])cc2[N+](=O)[O-])n1"
measurementtype = "TGI"
resultqualifier = "="
observedmeasurement = 18.7

[[record]]
molecule = "NC1=C(/C(N)=N/O)C(c2ccccc2)c2ccc3ccccc3c2O1 (stereo unspecified)"
measurementtype = "TGI"
resultqualifier = "="
observedmeasurement = 28.9

[[record]]
molecule = "COc1ccc(OC)c2c1ccc1c(C)c3ccccc3c(C)c12"
measurementtype = "TGI"
resultqualifier = ">"
observedmeasurement = 100

[[record]]
molecule = "CS(=O)(=O)Nc1ccc(NCc2cnc3ccc4[nH]cccc4c23)cc1"
measurementtype = "TGI"
resultqualifier = "="
observedmeasurement = 31

[[record]]
molecule = "Oc1cc(F)cc2cccnc12"
measurementtype = "TGI"
resultqualifier = "="
observedmeasurement = 1.17

[[record]]
molecule = "CN(C)c1ccc(C2=C([O-])c3cc(-[n+]4ccccc4)ccc3C2=O)cc1"
measurementtype = "TGI"
resultqualifier = ">"
observedmeasurement = 100

[[record]]
molecule = "CC1=C(C(=O)NCc2ccccc2)C(c2ccc(N(C)C)cc2)C(C(=O)NCc2ccccc2)=C(C)N1"
measurementtype = "TGI"
resultqualifier = ">"
observedmeasurement = 100

[[record]]
molecule = "COc1ccccc1CC1(O)OC(=O)c2ccccc21 (stereo unspecified)"
measurementtype = "TGI"
resultqualifier = ">"
observedmeasurement = 100

[[record]]
molecule = "COC(OC)[C@@H]1OC[C@H](n2ccc(=O)[nH]c2=O)[C@H]1O"
measurementtype = "TGI"
resultqualifier = ">"
observedmeasurement = 100

[[record]]
molecule = "O=C(/C=C/c1ccco1)N1CCN(Cc2ccccc2)CC1"
measurementtype = "TGI"
resultqualifier = ">"
observedmeasurement = 100

[[record]]
molecule = "CN1C(CC(O)c2ccccc2)CCCC1CC(O)(c1ccccc1)c1ccccc1 (stereo unspecified)"
measurementtype = "TGI"
resultqualifier = "="
observedmeasurement = 41.1

[[record]]
molecule = "CN1CCC(n2cnc(-c3ccc(F)cc3)c2-c2ccnc(Nc3ccccc3)n2)CC1"
measurementtype = "TGI"
resultqualifier = ">"
observedmeasurement = 25

[[record]]
molecule = "CN1CCN(c2ccc3nc(-c4ccc5nc(CCCc6ccc(N(CCCl)CCCl)cc6)[nH]c5c4)[nH]c3c2)CC1"
measurementtype = "TGI"
resultqualifier = ">"
observedmeasurement = 100

[[record]]
molecule = "COc1ccccc1NC(=O)C1=C(C)NC(C)=C(C(=O)Nc2ccccc2OC)C1c1ccc(C2C(C(=O)Nc3ccccc3OC)=C(C)NC(C)=C2C(=O)Nc2ccccc2OC)cc1"
measurementtype = "TGI"
resultqualifier = "="
observedmeasurement = 8

[[record]]
molecule = "C=C(C)C1Cc2cc(C(C)=O)ccc2O1 (stereo unspecified)"
measurementtype = "TGI"
resultqualifier = ">"
observedmeasurement = 100

[[record]]
molecule = "CCOC(=O)COc1cc(-c2ccccc2)nc2cc(F)ccc12"
measurementtype = "TGI"
resultqualifier = ">"
observedmeasurement = 100


---

The reader will find reported GI50 values listed item by item below.
Tested on: NCI/ADR-RES ovarian
Test: NCI tumour cell line growth inhibition, 48 h
measurementType: GI50

[[record]]
compound = "COC(=O)C[C@@H]1CC=CC(=O)/C1=C(O)/C=C/c1ccccc1"
observedmeasurement = "0.308 µM"

[[record]]
compound = "CCN1Cc2c(/C=C/c3ccccc3)nc3ccc(OC)cc3c2N(c2cccc(Cl)c2)C1"
observedmeasurement = "2.1 µM"

[[record]]
compound = "Fc1cccc(-c2nc(-c3c[nH]c4ncccc34)cs2)c1"
observedmeasurement = "> 100 µM"

[[record]]
compound = "CN1CCN(c2ccc(NC(=O)c3cncnc3Nc3ccc4c(ccn4Cc4cccc(F)c4)c3)cc2)CC1"
observedmeasurement = "4.81 µM"

[[record]]
compound = "O=C(Oc1c(Cl)c(Cl)c(Cl)c(Cl)c1Cl)C1CCCN1C(=O)OCc1ccccc1 (stereo not given)"
observedmeasurement = "3.15 µM"

[[record]]
compound = "Clc1ccc2c(NCCNc3nc(N4CCCCC4)nc4ccccc34)ccnc2c1"
observedmeasurement = "3.5 µM"

[[record]]
compound = "COc1ccccc1N1CCN(CC(O)Cn2c(=O)c3c(OC)nc(C)cc3c(=O)n2-c2ccccc2)CC1 (stereo not given)"
observedmeasurement = "87.9 µM"

[[record]]
compound = "COc1ccc2cn3c4ccc(O)cc4[nH]c(=O)c3c2c1"
observedmeasurement = "0.0675 µM"

[[record]]
compound = "C=CC(=O)N1CCC(CNc2ncnc(N)c2-c2ccc(Oc3ccccc3)cc2)CC1"
observedmeasurement = "24.6 µM"

[[record]]
compound = "N#CC1=C(N)Oc2c(ccc3cccnc23)C1c1ccccc1 (stereo not given)"
observedmeasurement = "0.464 µM"

